B1: Transmembrane protein 43 (Homo sapiens), Q9BTV4 (parent)
chain: MAANYSSTSTRREHVKVKTSSQPGFLERLSETSGGMFVGLMAFLLSFYLIFTNEGRALKTATSLAEGLSLVVSPDSIHSVAPENEGRLVHIIGALRTSKLLSDPNYGVHLPAVKLRRHVEMYQWVETEESREYTEDGQVKKETRYSYNTEWRSEIINSKNFDREIGHKNPSAMAVESFMATAPFVQIGRFFLSSGLIDKVDNFKSLSLSKLEDPHVDIIRRGDFFYHSENPKYPEVGDLRVSFSYAGLSGDDPDLGPAHVVTVIARQRGDQLVPFSTKSGDTLLLLHHGDFSAEEVFHRELRSNSMKTWGLRAAGWMAMFMGLNLMTRILYTLVDWFPVFRDLVNIGLKAFAFCVATSLTLLTVAAGWLFYRPLWALLIAGLALVPILVARTRVPAKKLE
partner: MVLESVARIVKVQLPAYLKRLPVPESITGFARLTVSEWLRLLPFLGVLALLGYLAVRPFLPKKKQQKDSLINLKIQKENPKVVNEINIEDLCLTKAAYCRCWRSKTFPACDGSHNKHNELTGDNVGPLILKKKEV

- Variants of: B1
- recorded_conditions: with cisd2_human CISD2, Q8N5K1
test_readout: effect of a mutation on the interaction

I91V = with no effect
Y371H = with no effect
R28W = with no effect
